Attribute Measured: melting point (°C)

(I) CC(C)c1ccc(-c2nc(Nc3ccc(F)c(C(F)(F)F)c3)nn2CCC(=O)N(C)C)cn1
(II) CNC(=O)Cn1nc(Nc2ccc(F)c(C(F)(F)F)c2)nc1-c1ccncc1NC
I'd appreciate it if you could identify which of I and II has the greater melting point. Respond using the label that marks the chosen record.
II
(II: 260.8 °C, I: 176.3 °C)

* * *

Entries and their pEC50 values follow.
Target: hα7-wt nAChR (Homo sapiens)
Construct: expressed in transfected cells
Test: Ca2+ flux imaging (FLIPR) (Protocol A), PAM activity with choline as agonist
Type: cell-based
Details: "<5" = no top plateau at maximal concentration
Experimental: Stable expression in mammalian cells in general and rat GH4C1 cells in particular, of cDNA clones encoding the human α7 wild-type sequence (hα7-wt nAChR) and in which the coding region is placed downstream of a promoter results in the appearance of functional α7 nAChRs on the surface of the mammalian cells. […] A control response to choline was calculated on each plate from the difference in peak in fluorescence in wells receiving either choline or assay buffer alone. […]
pEC50: −log10 of the molar value.

// solved cases for pEC50 follow
Structure Smiles: CNC(=O)CCn1nc(Nc2cccc(C(F)(F)F)c2)nc1-c1ccncc1
pEC50: < 5.00
--
Structure Smiles: CN(C)C(=O)Cn1nc(Nc2cccc(C(F)(F)F)c2)nc1-c1ccc2c(c1)OCCO2
pEC50: < 5.00

Continue with the compound presented below.
So what pEC50 did `CC(=O)NCCCn1nc(Nc2ccc(F)c(C(F)(F)F)c2)nc1-c1ccnc(C)c1` get with hα7-wt nAChR (Homo sapiens)?
< 5.00

* * *

target: hα7-wt nAChR (Homo sapiens, UniProt P36544); construct: expressed in transfected cells; experiment: Ca2+ flux imaging (FDSS) (Protocol B), PAM activity with choline as agonist; format: cell-based; settings: "<5" = no top plateau at maximal concentration
Sequence (P36544 23-502): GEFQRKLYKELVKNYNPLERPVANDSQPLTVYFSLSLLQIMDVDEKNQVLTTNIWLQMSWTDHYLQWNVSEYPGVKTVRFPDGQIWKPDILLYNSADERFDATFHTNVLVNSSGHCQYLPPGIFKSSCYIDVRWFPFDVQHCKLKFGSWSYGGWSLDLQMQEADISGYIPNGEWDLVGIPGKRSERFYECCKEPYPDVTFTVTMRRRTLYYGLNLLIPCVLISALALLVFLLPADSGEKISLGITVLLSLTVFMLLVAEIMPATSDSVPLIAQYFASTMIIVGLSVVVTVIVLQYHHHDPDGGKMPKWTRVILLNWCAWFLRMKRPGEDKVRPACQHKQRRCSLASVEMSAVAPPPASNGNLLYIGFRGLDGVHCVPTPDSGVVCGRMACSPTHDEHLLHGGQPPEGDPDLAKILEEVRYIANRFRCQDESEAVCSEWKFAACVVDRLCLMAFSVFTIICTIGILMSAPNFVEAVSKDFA
pEC50: −log10 of the molar value.
Attribute Measured: pEC50

Structure Smiles: C[C@H](O)Cn1nc(Nc2ccc(F)c(C(F)(F)F)c2)nc1-c1ccnc(NC2CC2)c1
Measurement Target: hα7-wt nAChR (Homo sapiens, UniProt P36544)
Reported Result: 6.10
//
Structure Smiles: Cc1cc(-c2nc(Nc3cc(F)c(F)c(F)c3)nn2C[C@H](C)O)cc(Cl)n1
Measurement Target: hα7-wt nAChR (Homo sapiens, UniProt P36544)
Reported Result: 6.10
//
Structure Smiles: COc1ccc(-c2nc(Nc3cccc(OC(F)(F)F)c3)nn2CC(=O)NC(C)C)cc1OC
Measurement Target: hα7-wt nAChR (Homo sapiens, UniProt P36544)
Reported Result: 6.10
//
Structure Smiles: CC(=O)c1cc(-c2nc(Nc3ccc(F)c(C(F)(F)F)c3)nn2CC(=O)NC2CC2)ccn1
Measurement Target: hα7-wt nAChR (Homo sapiens, UniProt P36544)
Reported Result: 5.90

* * *

Attribute Measured: melting point (°C)

Molecule: O=C(O)CCn1nc(Nc2ccc(F)c(C(F)(F)F)c2)nc1-c1ccnc(Cl)c1
Measurement Unit: °C
Reported Result: 180.7
--
Molecule: CN(C)C(=O)CCn1nc(Nc2ccc(F)c(C(F)(F)F)c2)nc1-c1ccc(NC2CC2)nc1
Measurement Unit: °C
Reported Result: 150.9
--
Molecule: CNC(=O)Cn1nc(Nc2ccc3c(c2)OC(F)(F)O3)nc1-c1cc(C)ncc1Cl
Measurement Unit: °C
Reported Result: 243
--
Molecule: CNC(=O)c1ccc(-c2nc(Nc3ccc(F)c(F)c3)nn2C[C@H](C)O)cn1
Measurement Unit: °C
Reported Result: 186.1
--
Molecule: CCc1cc(-c2nc(Nc3cccc(C(F)(F)F)c3)nn2CCO)ccn1
Measurement Unit: °C
Reported Result: 167.9
--
Molecule: Cc1nc(CCn2nc(Nc3ccc(F)c(C(F)(F)F)c3)nc2-c2ccncc2)no1
Measurement Unit: °C
Reported Result: 140.3
--
Molecule: CNC(=O)Cn1nc(Nc2ccc(F)c(C(F)(F)F)c2)nc1-c1ccnc(NC)c1
Measurement Unit: °C
Reported Result: 259.6
--
Molecule: COc1cc(-c2nc(Nc3ccc(F)c(C(F)(F)F)c3)nn2CCO)ccn1
Measurement Unit: °C
Reported Result: 177.1
--
Molecule: CNC(=O)Cn1nc(Nc2cc(F)c(F)c(NC)c2)nc1-c1ccnc(NC)c1
Measurement Unit: °C
Reported Result: 221.6
--
Molecule: CCNc1cc(-c2nc(Nc3ccc4c(c3)OC(F)(F)O4)nn2CC(C)O)ccn1 (centres unmarked)
Measurement Unit: °C
Reported Result: 167.9

(a) FCCn1nc(Nc2cc(F)cc(F)c2)nc1-c1ccnc(C2CC2)c1
(b) CNC(=O)Cn1nc(Nc2cc(F)cc(F)c2)nc1-c1ccnc(NC)c1
Of a and b , whose reported melting point is numerically smaller? Respond using the label that marks the chosen record.
a
(a: 150.3 °C, b: 247 °C)

* * *

molecular target: hα7-wt nAChR (Homo sapiens); construct: expressed in transfected cells; experiment: Ca2+ flux imaging (FDSS) (Protocol B), PAM activity with choline as agonist; format: cell-based; conditions: "<5" = no top plateau at maximal concentration
pEC50: −log10 of the molar value.
Attribute Measured: pEC50

Structure Smiles: Cc1cc(-c2nc(Nc3ccc4c(c3)OC(F)(F)O4)nn2CC(=O)NC2CCCC2)ccn1
Measurement Target: hα7-wt nAChR (Homo sapiens)
pEC50: 6.20

(P) COc1cc(Nc2nc(-c3ccnc(C)c3)n(CCC(=O)N(C)C)n2)cc(F)c1F
(Q) CNC(=O)Cn1nc(Nc2cccc(OC(F)(F)F)c2)nc1-c1ccc(C2CC2)nc1
I'd appreciate it if you could identify which of P and Q has the greater pEC50. Respond using the label that marks the chosen record.
Q

* * *

target: hα7-wt nAChR (Homo sapiens, UniProt P36544); construct: expressed in transfected cells; experiment: Ca2+ flux imaging (FDSS) (Protocol B), PAM activity with choline as agonist; assay type: cell-based; conditions: "<5" = no top plateau at maximal concentration
Attribute Measured: EC50 (nM)

// solved cases for EC50 follow
Structure Smiles: Cc1cc(-c2nc(Nc3ccc4c(c3)OC(F)(F)O4)nn2CC(=O)NCC2CC2)ccn1
Attribute Measured: EC50
Reported Result: 794
//
Structure Smiles: C[C@H](O)Cn1nc(Nc2ccc(F)c(C(F)(F)F)c2)nc1-c1ccc(C2CC2)nc1
Attribute Measured: EC50
Reported Result: 631
//
Structure Smiles: CNC(=O)CCn1nc(Nc2cccc(C(F)(F)F)c2)nc1-c1ccc2c(c1)OCCO2
Attribute Measured: EC50
Reported Result: 794
//
Structure Smiles: Cc1cc(-c2nc(Nc3ccc(F)c(C#N)c3)nn2CCC(=O)N(C)C)ccn1
Attribute Measured: EC50
Reported Result: 398
//
Structure Smiles: CC(=O)CCCn1nc(Nc2ccc(F)c(C(F)(F)F)c2)nc1-c1ccnc(C)c1
Attribute Measured: EC50
Reported Result: 794

(1) CN(C)C(=O)CCn1nc(Nc2cccc(Cl)c2)nc1-c1ccc2c(c1)OCCO2
(2) CN1CCOc2cc(-c3nc(Nc4cccc(OC(F)(F)F)c4)nn3CC(=O)NC3CC3)ccc21
(3) CCNC(=O)Cn1nc(Nc2ccc3c(c2)OC(F)(F)O3)nc1-c1ccnc(C)c1F
(4) CNC(=O)Cn1nc(Nc2ccc3c(c2)OC(F)(F)O3)nc1-c1cc(C)ncc1Cl
(5) CN(C)C(=O)CCn1nc(Nc2ccc(F)c(C(F)(F)F)c2)nc1-c1ccnc(NC2CC2)c1
List from greatest to least EC50. Please list each label once, in the requested order.
4, 3, 2, 1, 5
(4: 3160 nM, 3: 1000 nM, 2: 158 nM, 1: 79.4 nM, 5: 20 nM)

* * *

Attribute Measured: melting point (°C)

Structure Smiles: Cc1cc(-c2nc(Nc3ccc(F)c(F)c3)nn2CCC(=O)N(C)C)ccn1
Attribute Measured: melting point
Measurement Unit: °C
Reported Result: 181.3
--
Structure Smiles: CC(C)c1ccc(-c2nc(Nc3cccc(C(F)(F)F)c3)nn2CCO)cn1
Attribute Measured: melting point
Measurement Unit: °C
Reported Result: 177.1
--
Structure Smiles: CNc1cc(-c2nc(Nc3ccc(F)c(C(F)(F)F)c3)nn2C[C@H](C)O)ccn1
Attribute Measured: melting point
Measurement Unit: °C
Reported Result: 164.5
--
Structure Smiles: C/C(N)=N/OC(=O)CCn1nc(Nc2ccc(F)c(C(F)(F)F)c2)nc1-c1ccncc1
Attribute Measured: melting point
Measurement Unit: °C
Reported Result: 190.2
--
Structure Smiles: CNC(=O)Cn1nc(Nc2ccc(F)c(C(F)(F)F)c2)nc1-c1ccc(C)nc1
Attribute Measured: melting point
Measurement Unit: °C
Reported Result: 247.1
--
Structure Smiles: CNc1ccc(-c2nc(Nc3ccc(F)c(C(F)(F)F)c3)nn2CCO)cn1
Attribute Measured: melting point
Measurement Unit: °C
Reported Result: 179
--
Structure Smiles: CNC(=O)Cn1nc(Nc2ccc(F)c(C(F)(F)F)c2)nc1-c1ccc(NC)nc1
Attribute Measured: melting point
Measurement Unit: °C
Reported Result: 256.6
--
Structure Smiles: C[C@H](O)Cn1nc(Nc2ccc(F)c(C(F)(F)F)c2)nc1-c1ccnc(NC2CC2)c1
Attribute Measured: melting point
Measurement Unit: °C
Reported Result: 176.5
--
Structure Smiles: CNC(=O)Cn1nc(Nc2cc(F)cc(F)c2)nc1-c1ccnc(C2CC2)c1
Attribute Measured: melting point
Measurement Unit: °C
Reported Result: 222.4
--
Structure Smiles: CCNC(=O)Cn1nc(Nc2ccc3c(c2)OC(F)(F)O3)nc1-c1ccnc(C)c1F
Attribute Measured: melting point
Measurement Unit: °C
Reported Result: 223.5
--
Structure Smiles: OCCn1nc(Nc2ccc(F)c(C(F)(F)F)c2)nc1-c1ccc(C2CC2)nc1
Attribute Measured: melting point
Measurement Unit: °C
Reported Result: 168
--
Structure Smiles: CC(=O)NCCn1nc(Nc2ccc(F)c(C(F)(F)F)c2)nc1-c1ccncc1
Attribute Measured: melting point
Measurement Unit: °C
Reported Result: 174.3
--
Structure Smiles: Cc1cc(-c2nc(Nc3ccc4c(c3)OC(F)(F)O4)nn2CC(=O)NC2CCC2)ccn1
Attribute Measured: melting point
Measurement Unit: °C
Reported Result: 224.8
--
Structure Smiles: COc1cc(-c2nc(Nc3cccc(C(F)(F)F)c3)nn2CCC(=O)N(C)C)cc(C)n1
Attribute Measured: melting point
Measurement Unit: °C
Reported Result: 187.2

Every entry's value here was drawn from patent US8143419B2.
